# measured_target: electric eel AChE (eeAChE) (Electrophorus electricus, UniProt O42275)
# Construct: purchased Sigma–Aldrich (Steinheim, Germany)
# Sequence (O42275 24-633): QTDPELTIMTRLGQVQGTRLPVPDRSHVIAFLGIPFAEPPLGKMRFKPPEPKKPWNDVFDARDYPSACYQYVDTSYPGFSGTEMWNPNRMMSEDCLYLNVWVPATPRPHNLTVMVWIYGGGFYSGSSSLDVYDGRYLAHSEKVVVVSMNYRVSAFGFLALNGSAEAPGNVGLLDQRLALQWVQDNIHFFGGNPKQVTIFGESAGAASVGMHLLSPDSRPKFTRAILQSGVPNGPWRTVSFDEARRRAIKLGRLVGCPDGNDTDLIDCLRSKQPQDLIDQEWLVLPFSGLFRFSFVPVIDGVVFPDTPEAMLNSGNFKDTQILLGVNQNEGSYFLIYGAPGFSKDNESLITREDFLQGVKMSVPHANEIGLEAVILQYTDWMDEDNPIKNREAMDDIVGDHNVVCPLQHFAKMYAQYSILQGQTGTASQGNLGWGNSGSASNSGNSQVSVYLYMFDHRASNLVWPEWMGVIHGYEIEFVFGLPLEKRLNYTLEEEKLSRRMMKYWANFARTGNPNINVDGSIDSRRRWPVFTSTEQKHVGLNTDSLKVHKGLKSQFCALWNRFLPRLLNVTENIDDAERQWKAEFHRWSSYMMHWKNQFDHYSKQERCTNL
# assay_text: biochemical
# particulars: eeAChE IC50, mean ± SEM, triplicate independent experiments
result_type: IC50

Param item = O=C(c1ccccc1)c1ccc(OCCCCCN2CCCCCC2)cc1 [Compound 28] ; retrieve measured IC50.
4.63 µM

* * *

# assay_text: in vitro
# particulars: PAMPA
result_type: Papp (×10⁻⁶ cm/s)
API: value field is a number in ×10⁻⁶ cm/s; no unit string.

Param item = O=C(O)C(=O)O.O=C(c1ccc(F)cc1)c1ccc(OCCCCCN2CCCCC2)cc1 ; retrieve measured Papp.
6.3

* * *

# measured_target: human recombinant AChE (hAChE) (Homo sapiens, UniProt P22303)
# Sequence (P22303 32-614): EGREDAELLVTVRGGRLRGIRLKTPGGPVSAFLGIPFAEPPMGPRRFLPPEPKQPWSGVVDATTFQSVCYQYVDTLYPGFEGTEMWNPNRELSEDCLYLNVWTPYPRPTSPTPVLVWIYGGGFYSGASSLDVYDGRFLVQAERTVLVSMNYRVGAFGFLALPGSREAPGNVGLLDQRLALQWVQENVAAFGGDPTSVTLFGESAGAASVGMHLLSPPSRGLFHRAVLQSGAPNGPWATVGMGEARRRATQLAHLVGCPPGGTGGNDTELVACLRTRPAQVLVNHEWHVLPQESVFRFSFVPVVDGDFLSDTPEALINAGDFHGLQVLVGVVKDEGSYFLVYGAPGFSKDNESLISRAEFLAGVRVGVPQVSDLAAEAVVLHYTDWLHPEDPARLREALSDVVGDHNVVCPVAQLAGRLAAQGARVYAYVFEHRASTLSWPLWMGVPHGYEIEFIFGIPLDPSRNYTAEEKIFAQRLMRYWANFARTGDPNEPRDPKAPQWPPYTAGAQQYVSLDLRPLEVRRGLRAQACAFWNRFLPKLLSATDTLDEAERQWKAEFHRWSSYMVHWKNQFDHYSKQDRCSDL
# assay_text: Ellman's colorimetric assay, hAChE inhibition
result_type: pIC50
Scale note: pIC50 = -log10(concentration in M).

Param item = O=C(O)C(=O)O.O=C(c1ccc(F)cc1)c1ccc(OCCCCCN2CCCCC2)cc1 ; retrieve measured pIC50.
5.02

* * *

# measured_target: human H3R (Homo sapiens)
# Construct: expressed in transfected cells; host or cells: HEK293
# Sequence (Q9Y5N1 whole entry): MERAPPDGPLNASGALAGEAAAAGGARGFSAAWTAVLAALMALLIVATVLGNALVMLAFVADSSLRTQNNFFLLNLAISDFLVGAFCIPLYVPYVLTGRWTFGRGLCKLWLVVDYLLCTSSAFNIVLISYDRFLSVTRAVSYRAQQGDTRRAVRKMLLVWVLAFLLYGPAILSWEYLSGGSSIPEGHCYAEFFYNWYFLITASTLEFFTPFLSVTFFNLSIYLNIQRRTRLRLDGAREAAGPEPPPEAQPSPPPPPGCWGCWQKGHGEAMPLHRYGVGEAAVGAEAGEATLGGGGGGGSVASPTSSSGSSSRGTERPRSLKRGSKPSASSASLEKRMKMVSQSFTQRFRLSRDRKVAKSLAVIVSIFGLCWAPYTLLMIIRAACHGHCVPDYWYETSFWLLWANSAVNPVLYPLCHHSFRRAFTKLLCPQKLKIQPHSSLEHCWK
# assay_text: [3H]Nα-methylhistamine radioligand binding assay in HEK293 cells stably expressing hH3R
# Protocol: Final compounds were tested for their H3R affinity in a radioligand binding assay using [^3H]N^α-methylhistamine as radioligand in HEK293 cells stably expressing hH3R [25]. […] Affinity to hH3R stably expressed in HEK293 cells was evaluated in a radioligand binding assay as described previously. […] The radioactivity was counted in a MicroBeta Trilux counter (PerkinElmer). […]
result_type: pKi
Scale note: pKi = -log10(concentration in M).

These recorded examples may help you get a feel for the data.
INSERT INTO measurements (compound, readout_number) VALUES
  ('O=C(c1ccccc1)c1cccc(OCCCCCN2CCCCCC2)c1', 6.51),
  ('CC1CCN(CCCCCCOc2cccc(C(=O)c3ccccc3)c2)CC1', 6.97),
  ('CC1CCCN(CCCCCOc2cccc(C(=O)c3ccccc3)c2)C1 (centres unmarked)', 7.11);

Param item = O=C(c1ccccc1)c1cccc(OCCCCCN2CCCCC2)c1 ; retrieve measured pKi.
6.68

Param item = O=C(c1ccc(Cl)cc1)c1ccc(OCCCCCCN2CCCCCC2)cc1 ; retrieve measured pKi.
6.88

* * *

# measured_target: human H3R (Homo sapiens)
# Construct: expressed in transfected cells; host or cells: HEK293
# assay_text: [3H]Nα-methylhistamine radioligand binding assay in HEK293 cells stably expressing hH3R
# Procedure: Final compounds were tested for their H3R affinity in a radioligand binding assay using [^3H]N^α-methylhistamine as radioligand in HEK293 cells stably expressing hH3R [25]. […] Affinity to hH3R stably expressed in HEK293 cells was evaluated in a radioligand binding assay as described previously. […] The radioactivity was counted in a MicroBeta Trilux counter (PerkinElmer). […]
Mark True only when Ki stays strictly below 200 nM. Values equal to the cut-off are False.

INSERT INTO assay_data (compound, measured_target, category_label) VALUES
  ('O=C(O)C(=O)O.O=C(c1ccccc1)c1ccccc1OCCCCCN1CCCCC1', 'human H3R (Homo sapiens)', 'False');

Is it true that Ki reported for CC1CCCN(CCCCCOc2ccc(C(=O)c3ccc(F)cc3)cc2)C1 (stereo not drawn) is less than 200 nM?
True

Is it true that Ki reported for CC1CCCN(CCCCCCOc2ccccc2C(=O)c2ccccc2)C1.O=C(O)C(=O)O (stereo not drawn) is less than 200 nM?
True

Is it true that Ki reported for O=C(c1ccc(F)cc1)c1ccc(OCCCCCCN2CCCCC2)cc1 is less than 200 nM?
True

* * *

IC50 listing for selected compounds.
# measured_target: electric eel AChE (eeAChE) (Electrophorus electricus, UniProt O42275)
# Construct: purchased Sigma–Aldrich (Steinheim, Germany)
# assay_text: biochemical
# particulars: mean ± SEM, triplicate independent experiments; read-out: eeAChE IC50
API: value field is a number in nM; no unit string.

INSERT INTO results (compound, measured_target, unit_spec, readout_number) VALUES
  ('CC1CCCN(CCCCCOc2ccc(C(=O)c3ccccc3)cc2)C1 (stereo not drawn)', 'electric eel AChE (eeAChE) (Electrophorus electricus, UniProt O42275)', 'nM', 3180);

Enter reported IC50 observed with electric eel AChE (eeAChE) (Electrophorus electricus, UniProt O42275) for CC1CCCN(CCCCCCOc2ccc(C(=O)c3ccccc3)cc2)C1 (stereo not drawn)
2110

Enter reported IC50 observed with electric eel AChE (eeAChE) (Electrophorus electricus, UniProt O42275) for O=C(c1ccc(Cl)cc1)c1ccc(OCCCCCCN2CCCCCC2)cc1
2030

Enter reported IC50 observed with electric eel AChE (eeAChE) (Electrophorus electricus, UniProt O42275) for O=C(c1ccccc1)c1cccc(OCCCCCCN2CCCCCC2)c1
1550

Enter reported IC50 observed with electric eel AChE (eeAChE) (Electrophorus electricus, UniProt O42275) for CC1CCCN(CCCCCCOc2cccc(C(=O)c3ccccc3)c2)C1 (stereo not drawn)
2000

Enter reported IC50 observed with electric eel AChE (eeAChE) (Electrophorus electricus, UniProt O42275) for O=C(c1ccc(Cl)cc1)c1ccc(OCCCCCN2CCCCCC2)cc1
2240

* * *

# measured_target: electric eel AChE (eeAChE) (Electrophorus electricus)
# Construct: purchased Sigma–Aldrich (Steinheim, Germany)
# assay_text: biochemical
# particulars: read-out: eeAChE % Inh. at 10 µM
result_type: inhibition at 10 µM (%)
API: value field is a number in %; no unit string.

Param item = Clc1ccc(CCCOCCCN2CCCCC2)cc1 [pitolisant, reference compound] ; retrieve measured inhibition at 10 µM.
3

Param item = CC1CCCN(CCCCCOc2ccccc2C(=O)c2ccccc2)C1.O=C(O)C(=O)O (centres unmarked) ; retrieve measured inhibition at 10 µM.
16

Param item = O=C(O)C(=O)O.O=C(c1ccccc1)c1ccccc1OCCCCCCN1CCCCCC1 ; retrieve measured inhibition at 10 µM.
11

* * *

# measured_target: BuChE from human serum (hBuChE) (Homo sapiens)
# Construct: Human BuChE from human serum was provided by Vivonics (Bedford, MA, USA)
# Sequence (P06276 29-602): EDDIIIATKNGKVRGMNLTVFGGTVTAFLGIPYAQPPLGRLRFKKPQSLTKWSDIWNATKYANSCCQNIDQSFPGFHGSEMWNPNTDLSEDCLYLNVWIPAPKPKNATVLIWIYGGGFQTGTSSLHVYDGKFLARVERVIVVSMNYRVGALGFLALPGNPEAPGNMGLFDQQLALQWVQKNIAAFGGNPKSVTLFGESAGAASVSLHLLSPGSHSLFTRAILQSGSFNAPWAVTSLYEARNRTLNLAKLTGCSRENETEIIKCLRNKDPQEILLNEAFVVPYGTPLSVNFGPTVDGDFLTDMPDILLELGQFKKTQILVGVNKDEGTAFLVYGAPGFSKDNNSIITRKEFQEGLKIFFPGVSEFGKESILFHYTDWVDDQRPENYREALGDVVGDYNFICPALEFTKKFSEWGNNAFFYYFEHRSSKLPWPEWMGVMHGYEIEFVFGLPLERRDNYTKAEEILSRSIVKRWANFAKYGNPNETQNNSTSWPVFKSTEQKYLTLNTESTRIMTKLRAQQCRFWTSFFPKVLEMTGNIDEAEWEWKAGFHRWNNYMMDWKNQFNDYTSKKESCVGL
# assay_text: Ellman's colorimetric assay, hBuChE inhibition
result_type: IC50 (µM)
API: value field is a number in µM; no unit string.

Param item = O=C(O)C(=O)O.O=C(c1ccc(F)cc1)c1ccc(OCCCCCN2CCCCC2)cc1 [Compound 6] ; retrieve measured IC50.
1.16

* * *

# measured_target: BuChE from equine serum (eqBuChE) (Equus caballus, UniProt P81908)
# Sequence (P81908 whole entry): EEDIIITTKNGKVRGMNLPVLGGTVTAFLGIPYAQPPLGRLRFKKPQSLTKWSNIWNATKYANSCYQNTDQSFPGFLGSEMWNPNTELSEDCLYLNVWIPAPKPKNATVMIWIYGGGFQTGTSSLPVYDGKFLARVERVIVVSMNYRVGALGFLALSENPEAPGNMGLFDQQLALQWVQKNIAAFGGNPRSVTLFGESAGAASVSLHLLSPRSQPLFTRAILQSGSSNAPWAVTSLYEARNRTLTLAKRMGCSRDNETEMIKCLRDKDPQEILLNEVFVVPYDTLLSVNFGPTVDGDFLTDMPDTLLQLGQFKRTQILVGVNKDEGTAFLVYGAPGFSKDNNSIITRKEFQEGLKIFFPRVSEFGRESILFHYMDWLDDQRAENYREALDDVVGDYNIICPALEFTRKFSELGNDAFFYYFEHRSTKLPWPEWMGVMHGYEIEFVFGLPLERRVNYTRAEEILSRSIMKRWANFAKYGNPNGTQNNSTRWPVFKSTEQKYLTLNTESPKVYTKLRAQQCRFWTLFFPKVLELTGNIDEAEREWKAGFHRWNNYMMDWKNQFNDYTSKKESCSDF
# assay_text: biochemical
# particulars: mean ± SEM, triplicate independent experiments
pIC50 listing for selected compounds.
Scale note: pIC50 = -log10(concentration in M).

These recorded examples may help you get a feel for the data.
INSERT INTO measurements (compound, readout_number) VALUES
  ('O=C(O)C(=O)O.O=C(c1ccccc1)c1ccccc1OCCCCCCN1CCCCC1', 5.68),
  ('O=C(c1ccc(F)cc1)c1ccc(OCCCCCN2CCCCCC2)cc1', 6.65),
  ('O=C(c1ccccc1)c1cccc(OCCCCCCN2CCCCC2)c1', 5.68),
  ('O=C(c1ccccc1)c1cccc(OCCCCCN2CCCCCC2)c1', 6.05),
  ('CC1CCCN(CCCCCOc2ccc(C(=O)c3ccc(Cl)cc3)cc2)C1 (stereo not drawn)', 5.59);

Okay, now this compound:
Enter reported pIC50 observed with BuChE from equine serum (eqBuChE) (Equus caballus, UniProt P81908) for O=C(c1ccccc1)c1ccc(OCCCCCCN2CCCCC2)cc1
5.75

* * *

# measured_target: hMAO B (Homo sapiens)
# Sequence (P27338 whole entry): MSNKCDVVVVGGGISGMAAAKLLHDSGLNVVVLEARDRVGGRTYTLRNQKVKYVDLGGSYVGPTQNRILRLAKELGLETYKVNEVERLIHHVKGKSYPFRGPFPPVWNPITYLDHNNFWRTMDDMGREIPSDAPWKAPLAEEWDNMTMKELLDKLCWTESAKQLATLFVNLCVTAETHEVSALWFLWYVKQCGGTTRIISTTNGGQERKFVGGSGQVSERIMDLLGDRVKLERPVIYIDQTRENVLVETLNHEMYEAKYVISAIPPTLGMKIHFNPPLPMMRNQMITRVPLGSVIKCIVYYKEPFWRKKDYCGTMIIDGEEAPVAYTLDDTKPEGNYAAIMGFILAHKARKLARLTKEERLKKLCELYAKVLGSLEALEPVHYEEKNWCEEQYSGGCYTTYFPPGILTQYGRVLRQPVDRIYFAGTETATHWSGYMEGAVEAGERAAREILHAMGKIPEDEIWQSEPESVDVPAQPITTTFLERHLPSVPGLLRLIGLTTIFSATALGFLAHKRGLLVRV
# assay_text: Fluorometric MAO assay, hMAO B inhibition
# Assay type: biochemical
# particulars: mean ± SEM of two independent experiments, read-out: hMAO B %Inh. at 1 µM
# label = y if inhibition at 1 µM >= 20% else n

Reference set (5 entries):
INSERT INTO assay_data (compound, category_label) VALUES
  ('O=C(c1ccccc1)c1ccc(OCCCCCCN2CCCCC2)cc1', 'n'),
  ('CC1CCCN(CCCCCOc2ccc(C(=O)c3ccccc3)cc2)C1 (stereo not drawn)', 'n'),
  ('O=C(c1ccccc1)c1ccc(OCCCCCN2CCCCC2)cc1', 'y'),
  ('CC1CCCN(CCCCCCOc2cccc(C(=O)c3ccccc3)c2)C1 (stereo not drawn)', 'y'),
  ('O=C(c1ccccc1)c1ccc(OCCCCCCN2CCCCCC2)cc1', 'y');

Here is another compound to look at.
State whether the measured inhibition at 1 µM reaches 20%, counting equality as reaching it, for O=C(O)C(=O)O.O=C(c1ccccc1)c1ccccc1OCCCCCN1CCCCCC1
n

* * *

# measured_target: UniProt:P27338
# assay_text: Fluorometric MAO assay, hMAO B inhibition
# Assay type: biochemical
# particulars: mean ± SEM of two independent experiments, read-out: hMAO B %Inh. at 1 µM
inhibition at 1 µM listing for selected compounds.
API: value field is a number in %; no unit string.

INSERT INTO assay_data (compound, measured_target, unit_spec, readout_number) VALUES
  ('O=C(c1ccc(F)cc1)c1ccc(OCCCCCN2CCCCCC2)cc1', 'UniProt:P27338', '%', 30),
  ('CC1CCCN(CCCCCCOc2ccc(C(=O)c3ccccc3)cc2)C1 (stereo not drawn)', 'UniProt:P27338', '%', 7),
  ('O=C(c1ccc(Cl)cc1)c1ccc(OCCCCCN2CCCCC2)cc1', 'UniProt:P27338', '%', 18),
  ('CC1CCCN(CCCCCOc2ccc(C(=O)c3ccc(F)cc3)cc2)C1 (stereo not drawn)', 'UniProt:P27338', '%', 20),
  ('O=C(O)C(=O)O.O=C(c1ccc(F)cc1)c1ccc(OCCCCCN2CCCCC2)cc1', 'UniProt:P27338', '%', 25);

Param item = O=C(c1ccc(Cl)cc1)c1ccc(OCCCCCN2CCCCCC2)cc1 ; retrieve measured inhibition at 1 µM.
26

Param item = O=C(c1ccccc1)c1cccc(OCCCCCN2CCCCC2)c1 ; retrieve measured inhibition at 1 µM.
15

Param item = O=C(c1ccc(F)cc1)c1ccc(OCCCCCCN2CCCCCC2)cc1 ; retrieve measured inhibition at 1 µM.
24

Param item = O=C(c1ccccc1)c1ccc(OCCCCCN2CCCCCC2)cc1 ; retrieve measured inhibition at 1 µM.
29

From: paper PMC9822066
